Let's look at some compounds and their measured Number of mice that died on each day after infection: day 4.
Tested on: Pseudomonas aeruginosa ATCC 27853
Experiment: Injectable formulations on mice infected with peritonitis
Assay type: in vivo, ICR mice
Details: 5 mg/kg via tail vein, twice a day for 3 days, n = 10
Non-standard residues stand in square brackets, D forms with d. Residues, ends and D or L forms follow the SMILES beside them. dPhe(3,4-F2) = N[C@H](Cc1ccc(F)c(F)c1)C(=O)O; d2Nal = N[C@H](Cc1ccc2ccccc2c1)C(=O)O
quantity kind: Number of mice that died on each day after infection: day 4 (Mouse)

{"compound": "CC(=O)N[C@H](CCCNC(=N)N)C(=O)N[C@H](CCCCN)C(=O)N[C@H](CC(C)C)C(=O)N[C@H](CC(C)C)C(=O)N[C@H](Cc1ccc2ccccc2c1)C(=O)N[C@H](CCCCN)C(=O)N[C@H](CC(C)C)C(=O)N[C@H](CCCCN)C(=O)N[C@H](Cc1ccc2ccccc2c1)C(=O)N[C@H](CCCCN)C(=O)N[C@H](CCCNC(=N)N)C(N)=O [LV-18] (Ac-[dR][dK][dL][dL][d2Nal][dK][dL][dK][d2Nal][dK][dR]-NH2)", "recorded result": 0}
{"compound": "CC(=O)N[C@H](CCCNC(=N)N)C(=O)N[C@H](CCCNC(=N)N)C(=O)N[C@H](CC(C)C)C(=O)N[C@H](CC(C)C)C(=O)N[C@H](Cc1ccc2ccccc2c1)C(=O)N[C@H](CCCNC(=N)N)C(=O)N[C@H](CC(C)C)C(=O)N[C@H](CCCNC(=N)N)C(=O)N[C@H](Cc1ccc2ccccc2c1)C(=O)N[C@H](CCCNC(=N)N)C(=O)N[C@H](CCCNC(=N)N)C(N)=O [LV-1] (Ac-[dR][dR][dL][dL][d2Nal][dR][dL][dR][d2Nal][dR][dR]-NH2)", "recorded result": 0}
{"compound": "CC(=O)N[C@H](CCCCN)C(=O)N[C@H](CCCCN)C(=O)N[C@H](CC(C)C)C(=O)N[C@H](CC(C)C)C(=O)N[C@H](Cc1ccc2ccccc2c1)C(=O)N[C@H](CCCNC(=N)N)C(=O)N[C@H](CC(C)C)C(=O)N[C@H](CCCCN)C(=O)N[C@H](Cc1ccc2ccccc2c1)C(=O)N[C@H](CCCNC(=N)N)C(=O)N[C@H](CCCCN)C(N)=O [LV-19] (Ac-[dK][dK][dL][dL][d2Nal][dR][dL][dK][d2Nal][dR][dK]-NH2)", "recorded result": 0}
{"compound": "CC(=O)N[C@H](CCCNC(=N)N)C(=O)N[C@H](CCCCN)C(=O)N[C@H](CC(C)C)C(=O)N[C@H](CC(C)C)C(=O)N[C@H](Cc1ccc(F)c(F)c1)C(=O)N[C@H](CCCCN)C(=O)N[C@H](CC(C)C)C(=O)N[C@H](CCCCN)C(=O)N[C@H](Cc1ccc(F)c(F)c1)C(=O)N[C@H](CCCCN)C(=O)N[C@H](CCCNC(=N)N)C(N)=O [LV-6] (Ac-[dR][dK][dL][dL][dPhe(3,4-F2)][dK][dL][dK][dPhe(3,4-F2)][dK][dR]-NH2)", "recorded result": 0}
{"compound": "CC(=O)N[C@H](CCCNC(=N)N)C(=O)N[C@H](CCCCN)C(=O)N[C@H](CC(C)C)C(=O)N[C@H](CC(C)C)C(=O)N[C@H](Cc1ccccc1)C(=O)N[C@H](CCCNC(=N)N)C(=O)N[C@H](CC(C)C)C(=O)N[C@H](CCCCN)C(=O)N[C@H](Cc1ccccc1)C(=O)N[C@H](CCCNC(=N)N)C(=O)N[C@H](CCCCN)C(N)=O [LV-2] (Ac-[dR][dK][dL][dL][dF][dR][dL][dK][dF][dR][dK]-NH2)", "recorded result": 0}

Values compiled from patent US20250304620A1.
